assay: Pharmacokinetic profile after single oral administration in Beagle dogs; assay type: in vivo; details: dog, in vivo; male Beagle dogs, single oral dose about 1.0 mg/kg, fasted; read-out: Mean T1/2 (converted)
measuredMetric: half-life (h)
Entry rule: numbers only, all in h.

Prompt: # lookup: half-life of Cc1cnc(Nc2cc3c(c(C(F)(F)F)c2)B(O)OC3)nc1N[C@@H]1COCC[C@H]1C#N (single isomer, unassigned) [Example 033a]
Response: 14.6

====

assay: Pharmacokinetic profile after single oral administration in Beagle dogs; assay type: in vivo; details: dog, in vivo; male Beagle dogs, single oral dose about 1.0 mg/kg, fasted
measuredMetric: Cmax

Prompt: Record request: Cmax value, item Cc1cnc(Nc2cc3c(c(C(F)(F)F)c2)B(O)OC3)nc1N[C@@H]1COCC[C@H]1C#N (single isomer, unassigned) [Example 033a]
Response: 279 ng/mL
